# measured.target: T1, human NMI (N-myc Interacting protein), recombinant protein (human, UniProt Q13287 1-307, limits assumed)
# T1 construct: Gene ID: 9111; also called hNMI; antigen
# T1 sequence (looked up): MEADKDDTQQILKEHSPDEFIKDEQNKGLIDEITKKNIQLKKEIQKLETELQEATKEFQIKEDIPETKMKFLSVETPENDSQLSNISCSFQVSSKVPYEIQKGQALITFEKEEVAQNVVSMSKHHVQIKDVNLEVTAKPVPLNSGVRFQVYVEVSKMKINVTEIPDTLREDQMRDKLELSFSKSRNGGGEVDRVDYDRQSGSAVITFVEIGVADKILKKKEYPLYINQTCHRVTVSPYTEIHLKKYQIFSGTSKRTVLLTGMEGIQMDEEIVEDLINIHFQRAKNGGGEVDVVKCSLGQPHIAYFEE
# assay.explanation: ELISA EC50 against parent 98G10
measurement.name: Fold decrease in affinity (fold)
Give just the number in fold; leave the unit off.

98G10-H-12 (antibody, V domains shown, also called 98G10 W34H, Y112S (VH)) VH: QEQLEESGGDLVKPEGSLTLTCTASGFSFSASYHICWVRQAPGKGLEWIACIYGGSSGSAYYASWAKGRFTISKTSSTTVTLQMTSLTAADTATYFCARAGYYNYGSAGDISPSSFKLWGPGTLVTVSS VL: DIVMTQTPASVEAAVGGTVTINCQASQSISTALAWYQQKPGQPPKLLIYTASKVASGVPSRFSGSGSGTQFTLTISDLECADAATYYCQNYYYSSSSITFGGGTEVVVK : 2.61
98G10-H-13 (antibody, V domains shown, also called 98G10 W34K, Y112S (VH)) VH: QEQLEESGGDLVKPEGSLTLTCTASGFSFSASYKICWVRQAPGKGLEWIACIYGGSSGSAYYASWAKGRFTISKTSSTTVTLQMTSLTAADTATYFCARAGYYNYGSAGDISPSSFKLWGPGTLVTVSS VL: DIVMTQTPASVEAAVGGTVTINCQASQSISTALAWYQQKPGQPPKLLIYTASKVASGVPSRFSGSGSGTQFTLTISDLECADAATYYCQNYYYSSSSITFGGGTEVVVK : 54.1

Specify Fold decrease in affinity for 98G10-H-7 (antibody, V domains shown, also called 98G10 W34R, Y112R (VH)) VH: QEQLEESGGDLVKPEGSLTLTCTASGFSFSASYRICWVRQAPGKGLEWIACIYGGSSGSAYYASWAKGRFTISKTSSTTVTLQMTSLTAADTATYFCARAGYYNYGSAGDIRPSSFKLWGPGTLVTVSS VL: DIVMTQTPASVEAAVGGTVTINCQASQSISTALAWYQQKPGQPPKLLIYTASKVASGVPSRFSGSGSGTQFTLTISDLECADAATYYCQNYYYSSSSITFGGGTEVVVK and stop.
50.4
